What RP-LC retention time was measured for each of the following?
assay: gradient 5% acetonitrile 3 min, to 50% in 2 min, to 85% in 15 min, held 3 min, 100 µL/min; conditions: column: Zorbax Extend-C18 2.1 x 50 mm; eluents: water / acetonitrile, 0.1% formic acid
Hi! Could you send only the number? It should be in s, unit omitted.

Input CCOC(=O)c1noc2nc(C)nc(NCCc3ccc(OCC)cc3)c12 . Output RP-LC retention time: 1170

Input CCOC(=O)c1cnc2nc(C)ccc2c1Nc1cccc(Cl)c1 . Output RP-LC retention time: 752

Input COC(=O)c1cccc(Nc2c(-c3ccc(Cl)cc3)nc3cnccn23)c1 . Output RP-LC retention time: 905

Input CS(=O)(=O)Nc1cccc(NC(=O)CN2CCN(c3ccc4c(c3)OCCO4)C2=O)c1 . Output RP-LC retention time: 657

Input CC(C)c1csc(-c2csc(S(=O)(=O)NCc3ccc(F)cc3)c2)n1 . Output RP-LC retention time: 1120
